system: PC-3 prostate; assay: NCI-60 one-dose screen, 48 h (100 = growth as untreated, 0 = no growth, -100 = all killed); conditions: 10 µM unless noted
The panel holds about 83,000 compounds, 20% with a hit somewhere; the sample as a whole holds those more often. Active and inactive are the calls of the source. How the source made its calls: active means growth percent below 10; inactive means the rest.
measure_name: growth

Some compounds with recorded growth:
compound=C=CCn1c(SCC(=O)Nc2cccc(C(=O)/C=C/c3cccc([N+](=O)[O-])c3)c2)nc2ccccc2c1=O result="87.4% (inactive)"
compound="CCOC(=O)/C(F)=C/C1CC1C1CCCCC1 (centres undefined)" result="102% (inactive)"

The measured growth associated with "NCCN1CCN(c2nc(-c3ccccc3)nc3nc(-c4ccccc4)oc23)CC1" reads 15% (inactive)

Item: "O=C1[C@H]2Cc3c([nH]c4ccccc34)[C@@H](c3c(Cl)cccc3Cl)N2C(=O)CN1C1CCN(Cc2ccccc2)CC1" | growth: 77.8% (inactive)

# growth of CCN1C(=O)N(CC)C2SC(N/N=C/c3cccs3)=NC21 (centres undefined) = 28.4% (inactive)

// sample "C#C[C@]1(O)CC[C@H]2[C@@H]3CC=C4c5sc(C6CC6)nc5CC[C@]4(C)[C@H]3CC[C@@]21C" , its growth was 67.2% (inactive)

Per the record, "O=C(CN1C(=O)CSC1=O)Nc1ccc(C(=O)/C=C/c2cc3ccccc3nc2Cl)cc1" has growth of 70.5% (inactive)

Sure, the documented growth for "CN(C)c1ccc(/C=N/Nc2nc(N/N=C/c3ccc(N(C)C)cc3)nc(N3CCOCC3)n2)cc1" is 87.7% (inactive)

Record "COc1ccc(-c2nn(-c3ccccc3)cc2/C=C/C(=O)c2ccc(NC(=O)CCCCCCC(=O)NO)cc2)cc1" , field growth: 95.8% (inactive)

Briefly, growth measured for "Oc1ccc(CSc2nnc(-c3ccc(Br)cc3)o2)c2cccnc12" : 23% (inactive)

Memo: "COc1cc(-c2noc(C[C@@H](NC(=O)OCc3ccccc3)C(C)C)n2)cc(OC)c1OC" , reported growth: 97% (inactive)

Data point: "O=C(/C=C1\C=CN(CCCCF)c2ccccc21)n1ccc2ccccc21" ; growth = 103% (inactive)

Briefly, growth measured for "CC[C@@](C)(NC(=O)C(C)(C)NC(=O)[C@@H](NC(=O)[C@@H]1CCCN1C(=O)C(C)(C)NC(=O)[C@H](CC(C)C)NC(=O)CNC(=O)C(C)(C)NC(=O)[C@@H](NC(=O)C(C)(C)NC(=O)[C@H](CCC(N)=O)NC(=O)[C@H](C)NC(=O)C(C)(C)NC(=O)[C@H](C)NC(=O)C(C)(C)NC(=O)[C@@H]1CCCN1C(=O)C(C)(C)NC(C)=O)C(C)C)C(C)C)C(=O)N[C@@H](CCC(N)=O)C(=O)N[C@@H](CCC(N)=O)C(=O)N[C@H](CO)Cc1ccccc1" : 16.2% [4.25 µM] (inactive)

The compound listed as "C/C=C/C=C1\C[C@H]2CO[C@H](O2)C1=O" shows growth equal to 96.5% (inactive)

response.value for "COc1cc(CNC(=O)Cc2ccccc2[N+](=O)[O-])ccc1OCC(=O)NO" (field: growth) = 95.9% (inactive)

response.value for "Cc1ccc(/C=C/CC(=O)Nc2ccc(C(=O)Nc3ccc(F)cc3N)nc2)cn1" (field: growth) = 42.9% (inactive)

Value of growth reported for the compound "Clc1ccc(-c2nc3ccc(/C(=N\N=C\c4ccccc4)c4ccccc4)cc3[nH]2)cc1" is 62.2% (inactive)

// "CC(C)c1nn(-c2ccccc2)c(N2CCCCC2)c1/C=N/NC(N)=S" : growth value = 82.5% (inactive)

For this compound ( "O=C1CSC(=O)N1Cc1cc2ccccc2nc1Cl" ), measured growth is 96.8% (inactive)

====

system: MCF7 breast; assay: NCI-60 one-dose screen, 48 h; settings: 10 µM unless noted
This is part of a sample that, as a whole, favours compounds with a hit. Of some 83,000 tested, about 20% had one in any assay. Active and inactive are the calls of the source. The calls were made as follows: active = growth percent below 10; inactive = the rest.
Choose the fitting class; nothing outside 1 (active), -1 (inactive) is accepted.

Take a look at these entries with their results.
compound=O=C(CN1C(=O)S/C(=C\c2ccccc2)C1=O)Nc1ccc(C(=O)/C=C/c2cc3ccccc3nc2Cl)cc1 discrete_label=-1
compound=COc1cc2oc(-c3cccc(NC(=O)c4cc(NC(=O)[C@H](C)N)ccc4Cl)c3)cc(=O)c2c(OC)c1OC discrete_label=-1
compound=O=C1c2c(c3c4cc(O)ccc4oc3c3[nH]c4ccccc4c23)C(=O)N1O discrete_label=1
compound="C#CCOc1ccc(C(Nc2cc(Cl)ccc2Cl)c2nnnn2C2CCCCC2)cc1 (configuration not stated)" discrete_label=-1
compound=CCOC(=O)c1c(NCC(=O)Nc2cccc([N+](=O)[O-])c2)sc2c1CCCC2 discrete_label=1

Returns: the outcome recorded for "CCCCOc1ccc(S(=O)(=O)N2CCN(c3nccc(N4CCOCC4)n3)CC2)cc1" in this assay. -1

# lookup: test call for "CSc1ccc(/C(=N/N=C(N)N)c2ccccc2)cc1" -1

So what was the verdict on "COc1ccccc1N1CCN(C2=NN=C(c3cccc(Cl)c3)c3ccccc3C2)CC1" in this test? -1

Just curious, what result did "COc1c([C@@H](CC(C)C)OC(C)=O)ccc2c1C(=O)OCc1cc(C)cc(O)c1O2" get here? -1

# lookup: test call for "Cc1cc(NS(=O)(=O)c2ccc(-c3cnc(C4CC4)o3)cc2)ccc1I" -1

====

tested on: T-47D breast; test: NCI-60 one-dose screen, 48 h (100 = growth as untreated, 0 = no growth, -100 = all killed); settings: 10 µM unless noted
The panel holds about 83,000 compounds, 20% with a hit somewhere; the sample as a whole holds those more often.
We label by threshold. Values of growth strictly beneath 30% are fulfilled. Values of 30% and up are not fulfilled.

compound_structure_string=CCNC(=O)Oc1ccc(/C(=C(/C)c2ccccc2)c2ccc(OCCN3CCCC3)cc2)cc1 experimental_system="T-47D breast" discrete_label="not fulfilled"
compound_structure_string=Cn1cc(-c2nn3cc(-c4ccncc4)nc3s2)c2cc(Cl)ccc21 experimental_system="T-47D breast" discrete_label="not fulfilled"
compound_structure_string=Cc1ccc(NC(=O)c2cccc(CN3CCN(C)CC3)c2)cc1Oc1ccc(-c2[nH]nc3ncnc(N)c23)cc1 experimental_system="T-47D breast" discrete_label="not fulfilled"

Record "COc1ccc(N)cc1C(=O)Nc1cccc(-c2cc(=O)c3c(OC)c(OC)c(OC)cc3o2)c1" : is its growth strictly below 30%? not fulfilled

Please let me know if "COc1ccc(NC2=C(Cl)C(=O)C(C)=C(C)C2=O)cc1" shows growth below 30%. fulfilled

Would you kindly verify if growth of "NCCN1CCN(c2nc(-c3ccccc3)nc3nc(-c4ccccc4)oc23)CC1" is strictly less than 30%? fulfilled

Answer whether the compound "O=c1cc(-c2ccccc2)nc2sc(-c3c[nH]c4ccc(Br)cc34)nn12" has growth strictly less than 30% not fulfilled

A record lists "O=C(CCCCCCN1CC(=O)N2[C@@H](c3ccccc3)c3[nH]c4ccccc4c3C[C@H]2C1=O)NO" . Is its growth below 30%? fulfilled

Lab note: confirm whether the reported growth for this compound is below 30%, equality not counting. compound: "COc1ccc(/C(C)=C(\c2ccc(Cl)cc2)c2ccc(OCCN)cc2)cc1" not fulfilled

Please indicate whether the reported growth of "O=C(CSc1nnc(-c2ccc(Cl)cc2)n1-c1ccccc1)Nc1ccc(F)cc1" is strictly below 30%. not fulfilled

Threshold test, growth < 30%: "NC(=O)c1c(NC(=O)c2cccc(C(F)(F)F)c2F)sc2c1CCC(=O)C2" fulfilled

Does this compound meet the criterion growth < 30%? "O=C(Nc1cccc(-c2nc(-c3ccc(NC(=O)c4cccnc4)cc3Cl)no2)c1)Nc1ccc(NC(=O)C2CC2)c(C(F)(F)F)c1" fulfilled

Given the entry "CC1CCN(S(=O)(=O)c2ncsc2-c2ccccc2)CC1" , would its reported growth be below 30%? not fulfilled

Item "O=C(Cn1cc(CN2C(=O)c3ccc([N+](=O)[O-])cc3C2=O)nn1)Nc1ccc(F)cc1Cl" : growth beneath 30%, strictly? not fulfilled

Is it true that growth reported for "COc1cc2cc(Oc3ccc(NC(=O)Nc4cccc(C(F)(F)F)c4)cc3)c(C)nc2cc1OCCN(C)C" is less than 30%? not fulfilled

I'd appreciate it if you could check whether "C#C[C@]1(O)CC[C@H]2[C@@H]3CC=C4c5sc(-c6cccc(F)c6)nc5CC[C@]4(C)[C@H]3CC[C@@]21C" has growth smaller than 30%. not fulfilled

Report whether reported growth is lower than 30% (strictly) for "CCc1ccc(NC(=O)N[C@@H](Cc2cccc(F)c2)C(=O)N[C@@H]2C(=O)N3CCC[C@H]3C(=O)N3CCCC[C@H]3C(=O)N[C@@H](CO)C(=O)N3C[C@H](C)C[C@H]3C(=O)O[C@H]2C)c(F)c1" fulfilled
